- Tested on: CCRF-CEM
- assay-overview: Cytotoxicity against human CEM cells
- Type: cell-based
pIC50: −log10 of the molar value.
Reported pIC50 values for the following molecules.

| molecule | sign-qualifier | pIC50 |
| --- | --- | --- |
| C=CCc1cc(Cc2ccc(O)c(CC=C)c2)ccc1O | = | 4.82 |
| C=CCc1cccc(-c2cccc(CC=C)c2O)c1O | = | 4.98 |
| C=CCc1cc(C(=C(Cl)Cl)c2ccc(O)c(CC=C)c2)ccc1O | = | 4.77 |
| C=CCc1cc(C(C)(C)c2ccc(O)c(CC=C)c2)ccc1O | = | 5.24 |
| C=CCc1cc(-c2cccc(CC=C)c2O)ccc1O | = | 4.75 |
| C=CCc1ccc(O)c(-c2cc(CC=C)ccc2O)c1 [MAGNOLOL] | = | 4.00 |
| C=CCc1cc(/C(CC)=C(\CC)c2ccc(O)c(CC=C)c2)ccc1O | = | 5.47 |
| C=CCc1cc(C(c2ccc(O)c(CC=C)c2)c2ccccn2)ccc1O | = | 4.78 |
| C=CCc1cc(-c2ncc(O)cn2)ccc1O | < | 4.00 |
| C=CCc1ccc(O)c(-c2ccc(O)c(CC=C)c2)c1 [HONOKIOL] | = | 4.96 |
| C=CCc1cc(C2(c3ccc(O)c(CC=C)c3)CCCCC2)ccc1O | = | 4.96 |
| C=CCc1cc(-c2ccc(O)c(CC=C)c2)ccc1O | = | 4.64 |

Each recorded value in this set is attributed to ChEMBL document CHEMBL1146206.
